Test system: L1210 mouse leukemia cells transformed with the pHaMDR1/A retrovirus carrying a MDR1 cDNA (L1210VMDRC.06)
EXPERIMENTAL PROTOCOL: MDR sensitization assay: reversal of MDR to doxorubicin in L1210VMDRC.06 cells (MTT or XTT viability, 3 days) (Table 1)
EXPERIMENTAL PARAMETERS: mouse, l1210vmdrc.06 cells, 72 h, 1 µM
# note: exactly 2 is not below, so it is false (0); use true (1) for MDR Ratio 1.0 μM Cpd. strictly under it

COMPOUND: CN(C(=O)N1CCCC[C@H]1C(=O)OC(CCCc1cccnc1)CCCc1cccnc1)c1ccc(C(C)(C)C)cc1
CLASS: false (0)
//
COMPOUND: O=C(OC(CCCc1cccnc1)CCCc1cccnc1)[C@@H]1CCCCN1C(=O)N1CCCCC1
CLASS: true (1)
//
COMPOUND: CC(C)c1ccc(N(C)C(=O)N2CCCC[C@H]2C(=O)OC(CCCc2cccnc2)CCCc2cccnc2)cc1
CLASS: true (1)
//
COMPOUND: COc1cc(OC(=O)N2CCCC[C@H]2C(=O)OC(CCCc2cccnc2)CCCc2cccnc2)cc(OC)c1OC
CLASS: true (1)
//
COMPOUND: COc1cc(N(C)C(=O)N2CCCC[C@H]2C(=O)OC(CCCc2cccnc2)CCCc2cccnc2)cc(OC)c1OC
CLASS: false (0)
//
COMPOUND: CN(C(=O)N1CCCCC1C(=O)OC(CCc1ccccc1)CCc1ccccc1)c1ccc(S(=O)(=O)O)cc1 (stereo not shown)
CLASS: true (1)
//
COMPOUND: COc1cc(N(C)C(=O)N2CCCC[C@H]2C(=O)OC(CCc2ccccc2)CCc2ccccc2)cc(OC)c1OC
CLASS: false (0)

Where do the numbers come from? From patent US5744485A.
